Catalogue of IC50 readings, one per entry.
# System: HeLa
# TEST: Cytotoxicity against human HeLa cells
# Assay type: functional, cell-based
# RUN PARAMETERS: Homo sapiens, HeLa; read-out: pIC50 (converted)
Write the quantity with the unit trailing the number.

Would you please look over these solved cases?
COMPOUND	IC50
COC(=O)CC[C@@H](C)[C@H]1CC[C@H]2[C@@H]3CC[C@@H]4C[C@]5(CC[C@]4(C)[C@H]3C[C@H](OC(C)=O)[C@]12C)OO[C@]1(CC[C@@]2(C)[C@H](CC[C@@H]3[C@@H]2C[C@H](OC(C)=O)[C@]2(C)[C@@H]([C@H](C)CCC(=O)OC)CC[C@@H]32)C1)OO5	20.4 µM
CCNC(=O)CC[C@@H](C)[C@H]1CC[C@H]2[C@@H]3CC[C@@H]4CC5(CC[C@]4(C)[C@H]3C[C@H](OC(C)=O)[C@]12C)OOC1(CCC(CC)CC1)OO5 (some centres undefined)	6.92 µM
CC(=O)O[C@H]1C[C@H]2[C@@H](CC[C@@H]3C[C@]4(CC[C@@]32C)OO[C@]2(CC[C@@]3(C)[C@H](CC[C@@H]5[C@@H]3C[C@H](OC(C)=O)[C@]3(C)[C@@H]([C@H](C)CCC(=O)N6CCCCC6)CC[C@@H]53)C2)OO4)[C@@H]2CC[C@H]([C@H](C)CCC(=O)N3CCCCC3)[C@@]12C	120 µM

Next item in the queue.
What value of IC50 on HeLa does CCCNC(=O)CC[C@@H](C)[C@H]1CC[C@H]2[C@@H]3CC[C@@H]4C[C@]5(CC[C@]4(C)[C@H]3C[C@H](OC(C)=O)[C@]12C)OO[C@@]1(CC[C@@]2(C)[C@H](CC[C@@H]3[C@@H]2C[C@H](OC(C)=O)[C@]2(C)[C@@H]([C@H](C)CCC(=O)NCCC)CC[C@@H]32)C1)OO5 have? 33.1 µM

---

# TEST: Cytotoxicity against human Fem-X cells
# Format: functional, cell-based
# RUN PARAMETERS: Homo sapiens, Fem-X; read-out: IC50
ASSAY READOUT: pIC50
# pIC50 is unitless: minus log10 of the molar concentration; print number only

Some compounds with known pIC50 results, for comparison:
COMPOUND	ASSAY READOUT	RECORDED RESULT
CCC1CCC2(CC1)OOC1(CC[C@@]3(C)[C@H](CC[C@@H]4[C@@H]3C[C@H](OC(C)=O)[C@]3(C)[C@@H]([C@@H](C)CCC(=O)NC)CC[C@@H]43)C1)OO2 (stereo partly drawn)	pIC50	5.30
CCC1CCC2(CC1)OOC1(CC[C@@]3(C)[C@H](CC[C@@H]4[C@@H]3C[C@H](OC(C)=O)[C@]3(C)[C@@H]([C@H](C)CCC(=O)NC)CC[C@@H]43)C1)OO2 (stereo partly drawn)	pIC50	5.05

What value of measured pIC50 is listed for CCC1CCC2(CC1)OOC1(CC[C@@]3(C)[C@H](CC[C@@H]4[C@@H]3C[C@H](OC(C)=O)[C@]3(C)[C@@H]([C@@H](C)CCC(N)=O)CC[C@@H]43)C1)OO2 (stereo partly drawn) ? 5.35

---

Reported IC50 by item:
# System: HeLa
# TEST: Cytotoxicity against human HeLa cells
# Format: functional, cell-based
# RUN PARAMETERS: Homo sapiens, HeLa; read-out: pIC50 (converted)
Give just the number in µM; leave the unit off.

Past entries and their recorded results:
MOLECULE SMILES	RECORDED RESULT
COC(=O)CNC(=O)CC[C@@H](C)[C@H]1CC[C@H]2[C@@H]3CC[C@@H]4C[C@]5(CC[C@]4(C)[C@H]3C[C@H](OC(C)=O)[C@]12C)OO[C@]1(CC[C@@]2(C)[C@H](CC[C@@H]3[C@@H]2C[C@H](OC(C)=O)[C@]2(C)[C@@H]([C@H](C)CCC(=O)NCC(=O)OC)CC[C@@H]32)C1)OO5	3.63
CC(=O)O[C@H]1C[C@H]2[C@@H](CC[C@@H]3CC4(CC[C@@]32C)OOC2(CCCCC2)OO4)[C@@H]2CC[C@H]([C@H](C)CCC(=O)O)[C@@]12C	6.92
CN(C)CCNC(=O)C1CCC2(CC1)OOC1(CCCCC1)OO2	135
CCCN(CCC)C(=O)CC[C@@H](C)[C@H]1CC[C@H]2[C@@H]3CC[C@@H]4CC5(CC[C@]4(C)[C@H]3C[C@H](OC(C)=O)[C@]12C)OOC1(CCCCC1)OO5	28.2

Attention now turns to another entry.
Any idea what IC50 was measured for O=C(O)C1CCC2(CC1)OOC1(CCCCC1)OO2 ? 120
